Origin of the recorded values: patent US20180162862A1

Biological target: S. aureus SgtB (SgtB ΔTM) (Staphylococcus aureus, UniProt Q99T05)
Construct: SgtB ΔTM of S. aureus; made in house
Experiment: Dose-dependent displacement of probe CMG121 from S. aureus SgtB by fluorescence polarization
Assay type: binding
Settings: Figure 5; 75 nM CMG121, 1.0-1.5 μM SgtB, pH 8.0, 30 min at 4° C.; read-out: SgtB (FP, probe CMG121 displacement) IC50
measured parameter: IC50 (µM)
Give bare numbers, in µM.

// returns reported IC50 for input Cc1cccc(OCCCSc2nc(-c3ccc(C(C)(C)C)cc3)nc3cc(=O)[nH]n23)c1C
7

====

Tested on: E. faecalis PBP2a
Assay: In vitro inhibition of polymerization of 14C-lipid II by E. faecalis PBP2a
Type: biochemical
Conditions: 50 nM PBP2a, 25 min at room temperature
measured parameter: IC50 (µM)
Give bare numbers, in µM.

# IC50 lookup, item Cc1cccc(OCCCSc2nc(-c3ccc(C(C)(C)C)cc3)nc3cc(=O)[nH]n23)c1C [1882L04]
337

====

System: S. aureus ATCC 43300
Test: MIC test according to CLSI M7-A9, S. aureus ATCC 43300
Format: cell-based
Details: Staphylococcus aureus, ATCC43300; CLSI M7-A9, CAMHB, 24 h (Table 2); read-out: S. aureus ATCC 43300 MIC at 24 h
measured parameter: MIC

compound	measured
CC(C)(C)c1ccc(-c2nc(NCCCN3Cc4ccccc4C3)n3[nH]c(=O)cc3n2)cc1 [Example 44]	> 128 mg/L
CC(C)(O)CNc1nc(-c2ccc(C(C)(C)C)cc2)nc2cc(=O)[nH]n12 [Example 26]	32 mg/L

The following compounds each have a reported value; give each one's MIC.
1. CN(C)c1nc(-c2ccc(C(C)(C)C)cc2)nc2cc(=O)[nH]n12 [Example 32]
2. COCCCNc1nc(-c2ccc(C(C)(C)C)cc2)nc2cc(=O)[nH]n12 [Example 27]
3. Cc1cc(NCCCNc2nc(-c3ccc(C(C)(C)C)cc3)nc3cc(=O)[nH]n23)ccc1Cl [Example 47]

["32 mg/L", "> 32 mg/L", "4 mg/L"]

Each compound below has a reported value. Please supply its MIC.
1. Cc1cccc(OCCCNc2nc(-c3ccc(C(C)(C)C)cc3)nc3cc(=O)[nH]n23)c1C [Example 30]
2. CC(C)(C)c1ccc(-c2nc(NCCCc3ccccc3)n3[nH]c(=O)cc3n2)cc1 [Example 23]
3. CC(C)(C)c1ccc(-c2nc(NCCCOc3cnc(Cl)nc3)n3[nH]c(=O)cc3n2)cc1 [Example 52]

> 32 mg/L
4 mg/L
> 64 mg/L

====

Can you tell me MIC for the items I'm about to list?
Test system: S. aureus ATCC 43300
Test: MIC test according to CLSI M7-A9, S. aureus ATCC 43300
Format: cell-based
Conditions: Staphylococcus aureus, ATCC43300; CLSI M7-A9, CAMHB, 24 h (Table 2); read-out: S. aureus ATCC 43300 MIC at 24 h
One number for each entry, in µg/mL.

compound	measured on	value unit	MIC
Cc1cc(OCCCNc2nc(-c3ccc(C(C)(C)C)cc3)nc3c(F)c(=O)[nH]n23)ccc1Cl [Example 71]	S. aureus ATCC 43300	µg/mL	8

Let's switch to this compound now.
Field request: MIC | item: Cc1cc(OCCC(C)Nc2nc(-c3ccc(C(C)(C)C)cc3)nc3cc(=O)[nH]n23)ccc1Cl (stereo not shown) [Example 65]
4

====

Kindly supply the reported MIC values for the records listed here.
Tested on: S. aureus ATCC 43300
Experiment: MIC test according to CLSI M7-A9, S. aureus ATCC 43300
Type: cell-based
Conditions: Staphylococcus aureus, ATCC43300; CLSI M7-A9, CAMHB, 24 h (Table 2); read-out: S. aureus ATCC 43300 MIC at 24 h
Method: MIC Test (S. aureus ATCC 29213, S. aureus ATCC 43300 and S. aureus Newman) Susceptibility testing of S. aureus ATCC 29213, ATCC 43300 and Newman was performed according to Clinical Laboratory Standard Institute (CLSI) guidelines M7-A9. […] Endpoints were determined visually (and by spectrophotometer at 600 nm) and the minimum inhibitory concentration (MIC) defined as the lowest concentration of test articles resulting in complete inhibition of visible bacterial growth. […]
Give bare numbers, in µg/mL.

// below: answered compounds
compound	measured parameter	measured
COc1ccc(CNc2nc(-c3ccc(C(C)(C)C)cc3)nc3cc(=O)[nH]n23)cc1 [Example 15]	MIC	8
CC(C)(C)c1ccc(-c2nc(NCCCN3CCOCC3)n3[nH]c(=O)cc3n2)cc1 [Example 41]	MIC	128
CC(C)(C)c1ccc(-c2nc(NC3CCCCC3)n3[nH]c(=O)cc3n2)cc1 [Example 36]	MIC	8
Cc1cc(NCC2CN(c3nc(-c4ccc(C(C)(C)C)cc4)nc4cc(=O)[nH]n34)C2)ccc1Cl [Example 57]	MIC	8
CC(C)(C)c1ccc(-c2nc(NCC(O)CNC3CCCCC3)n3[nH]c(=O)cc3n2)cc1 (stereo not shown) [Example 61]	MIC	32

For every listed record, write down its MIC.
1. CCCC(C)Nc1nc(-c2ccc(C(C)(C)C)cc2)nc2cc(=O)[nH]n12 (stereo not shown) [Example 28]
2. CC(C)(C)c1ccc(-c2nc(NCCCN3CCC(O)CC3)n3[nH]c(=O)cc3n2)cc1 [Example 40]
3. CC(C)(C)c1ccc(-c2nc(NC3CCC(NCc4ccccc4)CC3)n3[nH]c(=O)cc3n2)cc1 (stereo not shown) [Example 56]

[16, 128, 8]

Below is a list of compounds. For each, state its recorded MIC.
1. CCCCN(C)c1nc(-c2ccc(C(C)(C)C)cc2)nc2cc(=O)[nH]n12 [Example 34]
2. CC(C)(C)c1ccc(-c2nc(NC3CCN(Cc4ccccc4)CC3)n3[nH]c(=O)cc3n2)cc1 [Example 35]
3. CC(C)(C)c1ccc(-c2nc(NCCCO)n3[nH]c(=O)cc3n2)cc1 [Example 22]
4. CC(C)(C)c1ccc(-c2nc(NCCCNC3CCCCC3)n3[nH]c(=O)cc3n2)cc1 [Example 39]
5. Cc1ncc(CN2CCC(Nc3nc(-c4ccc(C(C)(C)C)cc4)nc4cc(=O)[nH]n34)CC2)[nH]1 [Example 55]
6. Cc1ccnc(C)c1OCCCNc1nc(-c2ccc(C(C)(C)C)cc2)nc2cc(=O)[nH]n12 [Example 53]

1. 16
2. 8
3. 32
4. 32
5. 32
6. 8

Requested read-out: MIC. Entry: CN1CCC(Nc2nc(-c3ccc(C(C)(C)C)cc3)nc3cc(=O)[nH]n23)CC1 [Example 19]
64

====

Target: S. aureus SgtB (Staphylococcus aureus, UniProt Q99T05)
Assay: Dose-dependent displacement of probe CMG121 from S. aureus SgtB by fluorescence polarization
Assay type: binding
Design: made in house
Settings: displacement of 75 nM CMG121 from S. aureus SgtB, 30 min at 4° C.; read-out: IC50 from FP Assay
Experimental: I. Dose-Dependent Displacement of CMG121 from S. aureus SgtB by Fluorescence Polarization A black 384 well plate (Corning NBS Low Volume No. 3820) was filled (10 μL per well) with an equilibrated solution containing 10 mM TRIS (pH=8.0), 100 mM NaCl, 75 nM CMG121, and 1.0-1.5 μM S. aureus SgtB (depending on protein batch). […] The plate was incubated at 4° C. for 30 min and read with a Perkin Elmer EnVision microplate reader (FP-read out, excitation: 480 nm; emission: 535 nm). […]
measured parameter: IC50 (µM)
One number for each entry, in µM.

Quick check: IC50 of Cc1cccc(OCCCSc2nc(-c3ccc(C(C)(C)C)cc3)nc3cc(=O)[nH]n23)c1C ?
10

====

Test system: S. aureus ATCC 43300
Test: MIC test according to CLSI M7-A9, S. aureus ATCC 43300
Type: cell-based
Conditions: Staphylococcus aureus, ATCC43300; CLSI M7-A9, CAMHB, 24 h (Table 2); read-out: S. aureus ATCC 43300 MIC at 24 h
Exercise: state measured MIC for each of the compounds provided.
One number for each entry, in µg/mL.

The examples below pair each entry with its known result.
compound	value unit	MIC
CN(C)CCNc1nc(-c2ccc(C(C)(C)C)cc2)nc2cc(=O)[nH]n12 [Example 25]	µg/mL	32
CC(C)(C)c1ccc(-c2nc(NCCCCc3ccccc3)n3[nH]c(=O)cc3n2)cc1 [Example 29]	µg/mL	16

The following compounds each have a reported value; give each one's MIC.
1. Cc1cc(OCC(O)CNc2nc(-c3ccc(C(C)(C)C)cc3)nc3cc(=O)[nH]n23)ccc1Cl (centres unmarked) [Example 60]
2. CC(C)(C)c1ccc(-c2nc(NCCCOC3CCCCC3)n3[nH]c(=O)cc3n2)cc1 [Example 31]

1. 8
2. 16

Need MIC, item Cc1cc(NC2CCN(c3nc(-c4ccc(C(C)(C)C)cc4)nc4cc(=O)[nH]n34)CC2)ccc1Cl [Example 54]
4
